Reference source for all entries: patent US20090137577A1

- assayedTarget: mGluR2 receptor (metabotropic glutamate receptor 2) (Homo sapiens)
- runDescription: mGluR2 potentiator screen (FLIPR, EC10-EC20 glutamate challenge)
- reportedConditions: geometric mean; read-out: mGluR 2 EC50 (geometric mean)
# key: entry, value: pEC50
Scale: pEC50 equals -log10([C]), with [C] in mol/L.

compound: Cc1ccc(C(C)Oc2ccc(CN3CC(C)OC3=O)cc2)cc1 (stereo not shown)
experimentalResult: 7.62

compound: COc1ccc(-c2ccc(CN3C[C@@H](C)OC3=O)cc2)cc1OC
experimentalResult: 6.17

compound: C[C@@H]1CN(Cc2ccc(-c3ccc(Cl)c(F)c3)cc2)C(=O)O1
experimentalResult: 6.95

compound: CC(Oc1ccc(CN2CCN(CC3CCCC3)CC2=O)cc1)C1CCCCC1 (stereo not shown)
experimentalResult: 6.54

compound: C[C@H]1[C@@H](c2ccccc2)OC(=O)N1Cc1ccc(OCc2cccnc2)cc1
experimentalResult: 6.61

compound: CC1CN(Cc2ccc(OCc3nc4ccccc4n3C(C)C)cc2)C(=O)O1 (stereo not shown)
experimentalResult: 6.08

# input So what does the record say about pEC50 for C[C@H](Oc1ccc(CN2C[C@H](C)OC2=O)cc1)c1ccccc1 ?
# output 6.68

# input Field entry: C[C@@H]1CN(Cc2ccc(OCC3CCCCC3)c(F)c2)C(=O)O1
# output 6.71

# input Field entry: C[C@@H]1CN(Cc2ccc(-c3ccc(OC(F)(F)F)cc3)nc2)C(=O)O1
# output 6.33

# input Field entry: CC1CN(Cc2ccc(OCCCc3cccnc3)cc2)C(=O)O1 (stereo not shown)
# output 5.94

# input Field entry: CC1CN(Cc2ccc(OCc3c(F)cccc3F)cc2)C(=O)O1 (stereo not shown)
# output 7.13

# input Field entry: Cc1ccc(F)cc1COc1ccc(CN2CC(C)OC2=O)cc1 (stereo not shown)
# output 7.36

# input Field entry: C[C@@H]1CN(Cc2ccc(-c3cccc4cnccc34)cc2)C(=O)O1
# output 7.38

# input Field entry: CC(C)Oc1ccc(-c2ccc(CN3C[C@@H](C)OC3=O)cc2)cc1F
# output 7.27

# input Field entry: Cc1ccc(F)c(COc2ccc(CN3CC(C)OC3=O)cc2)c1 (stereo not shown)
# output 7.00

# input Field entry: O=C1OCCCN1Cc1ccc(OCCC2CCCCC2)cc1
# output 6.55

# input Field entry: Cc1cc(Cl)ccc1-c1ccc(CN2C[C@@H](C)OC2=O)cc1
# output 7.31

# input Field entry: O=C1OC[C@@H]2CCCC[C@@H]2N1Cc1ccc(OCC2CCC2)cc1
# output 6.12

# input Field entry: C[C@@H]1CN(Cc2ccc(-c3ccc(C(F)(F)F)cc3C(F)(F)F)nc2)C(=O)O1
# output 6.10

====

- assayedTarget: mGluR2 receptor (metabotropic glutamate receptor 2) (Homo sapiens, UniProt Q14416)
- Sequence (Q14416 19-872, species assumed): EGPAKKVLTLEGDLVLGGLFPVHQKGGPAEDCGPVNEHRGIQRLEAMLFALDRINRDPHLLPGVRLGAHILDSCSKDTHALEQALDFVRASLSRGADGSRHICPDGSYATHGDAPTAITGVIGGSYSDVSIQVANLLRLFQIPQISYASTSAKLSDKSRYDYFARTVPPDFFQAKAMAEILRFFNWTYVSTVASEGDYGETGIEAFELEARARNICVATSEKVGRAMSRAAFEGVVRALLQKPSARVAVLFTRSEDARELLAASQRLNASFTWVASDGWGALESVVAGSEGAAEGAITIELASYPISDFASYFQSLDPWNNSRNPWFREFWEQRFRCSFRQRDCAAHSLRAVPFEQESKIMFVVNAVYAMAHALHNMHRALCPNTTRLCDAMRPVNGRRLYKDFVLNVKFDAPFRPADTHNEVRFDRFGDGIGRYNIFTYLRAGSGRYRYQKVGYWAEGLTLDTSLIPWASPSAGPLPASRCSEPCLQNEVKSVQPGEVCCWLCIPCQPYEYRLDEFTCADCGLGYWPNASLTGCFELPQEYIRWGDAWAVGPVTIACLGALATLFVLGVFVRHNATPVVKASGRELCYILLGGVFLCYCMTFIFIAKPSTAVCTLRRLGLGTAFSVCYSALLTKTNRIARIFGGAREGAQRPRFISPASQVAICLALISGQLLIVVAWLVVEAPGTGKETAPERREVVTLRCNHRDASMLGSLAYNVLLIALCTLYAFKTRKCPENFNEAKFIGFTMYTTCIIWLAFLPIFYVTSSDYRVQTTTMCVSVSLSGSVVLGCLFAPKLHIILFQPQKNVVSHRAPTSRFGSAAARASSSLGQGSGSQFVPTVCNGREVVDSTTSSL
- runDescription: mGluR2 potentiator screen (FLIPR, EC10-EC20 glutamate challenge)
- reportedConditions: geometric mean; read-out: mGluR 2 EC50 (geometric mean)
readoutName: EC50 (nM)
Note: unit nM is implicit; provide only the numeric part.

compound: O=C1OC(c2ccccc2)CN1Cc1ccc(OCCC2CCCCC2)cc1 (stereo not drawn) [Example 10]
readoutName: EC50
experimentalResult: 395

compound: C[C@H]1[C@@H](c2ccccc2)OC(=O)N1Cc1ccc(OCC2CCCCC2)cc1 [Example 27]
readoutName: EC50
experimentalResult: 1140

compound: C[C@@H]1CN(Cc2ccc(-c3cc(F)cc(F)c3)cc2)C(=O)O1 [Example 246]
readoutName: EC50
experimentalResult: 445

compound: C[C@@H]1CN(Cc2ccc(-c3ccc(C(F)(F)F)cc3F)cc2F)C(=O)O1 [Example 252]
readoutName: EC50
experimentalResult: 29.3

compound: CC1CN(Cc2ccc(OCc3ccc(Cl)cc3F)cc2)C(=O)O1 (stereo not drawn) [Example 88]
readoutName: EC50
experimentalResult: 66.6

Next up:
# input So what does the record say about EC50 for CC1CN(Cc2ccc(O[C@H](C)c3ccccc3)cc2)C(=O)O1 (stereo partly drawn) [Example 139] ?
# output 79.7

====

- assayedTarget: mGluR2 receptor (metabotropic glutamate receptor 2) (Homo sapiens, UniProt Q14416)
- runDescription: mGluR2 potentiator screen (FLIPR, EC10-EC20 glutamate challenge)
- reportedConditions: geometric mean; read-out: mGluR 2 EC50 (geometric mean)
readoutName: EC50 (nM)
Note: unit nM is implicit; provide only the numeric part.

Take a look at these entries with their results.
compound: COc1ccc(Cl)cc1-c1ccc(CN2C[C@@H](C)OC2=O)cn1
endpointUnit: nM
EC50: 562
--
compound: CC[C@](COc1ccc(CN2CC(C)OC2=O)cc1)(c1ccccc1)N(C)C (stereo partly drawn)
endpointUnit: nM
EC50: 1340
--
compound: COc1ccc(F)cc1-c1ccc(CN2C[C@@H](C)OC2=O)cc1
endpointUnit: nM
EC50: 24.6
--
compound: CC1CN(Cc2ccc(OCc3ccc(C#N)cc3)cc2)C(=O)O1 (stereo not drawn)
endpointUnit: nM
EC50: 827
--
compound: O=C1OC(c2ccccc2)CN1Cc1ccc(OCc2ccccn2)cc1 (stereo not drawn)
endpointUnit: nM
EC50: 1280
--
compound: CC1CN(Cc2ccc(OC3CCc4ccccc43)cc2)C(=O)O1 (stereo not drawn)
endpointUnit: nM
EC50: 85.8
--
compound: C[C@@H]1CN(Cc2ccc3c(c2)Cc2ccccc2-3)C(=O)O1
endpointUnit: nM
EC50: 625

Next up:
# input So what does the record say about EC50 for COc1cc(COc2ccc(CN3CC(C)OC3=O)cc2)ccc1F (stereo not drawn) ?
# output 1680

====

- assayedTarget: mGluR2 receptor (metabotropic glutamate receptor 2) (Homo sapiens)
- runDescription: mGluR2 potentiator screen (FLIPR, EC10-EC20 glutamate challenge)
- reportedConditions: geometric mean; read-out: mGluR 2 EC50 (geometric mean)
pEC50: −log10 of the molar value.
Respond with yes (1) for pEC50 values of 7 and above, no (0) for values below.

Consider the worked cases shown below.
molecule: CC(Oc1ccc(CN2CC(C)(C)COC2=O)cc1)C1CCCCC1 (stereo not shown)
assayedTarget: mGluR2 receptor (metabotropic glutamate receptor 2) (Homo sapiens)
classAssignment: no (0)
//
molecule: Cc1cc(CN2C[C@@H](C)OC2=O)ccc1Oc1ncc(Cl)cc1Cl
assayedTarget: mGluR2 receptor (metabotropic glutamate receptor 2) (Homo sapiens)
classAssignment: yes (1)
//
molecule: COc1ccc(-c2ccc(CN3C[C@@H](C)OC3=O)cc2)cc1F
assayedTarget: mGluR2 receptor (metabotropic glutamate receptor 2) (Homo sapiens)
classAssignment: yes (1)
//
molecule: CC1(C)COC(=O)N(Cc2ccc(OCc3ccccc3)cc2)C1
assayedTarget: mGluR2 receptor (metabotropic glutamate receptor 2) (Homo sapiens)
classAssignment: no (0)
//
molecule: CC(Oc1ccc(CN2CCN(C3CC[C@@H](C)C3)CC2=O)cc1)C1CCCCC1 (stereo partly shown)
assayedTarget: mGluR2 receptor (metabotropic glutamate receptor 2) (Homo sapiens)
classAssignment: no (0)
//
molecule: C[C@@H]1CN(Cc2ccc(-c3ccc(F)cc3Cl)cc2)C(=O)O1
assayedTarget: mGluR2 receptor (metabotropic glutamate receptor 2) (Homo sapiens)
classAssignment: yes (1)
//
molecule: CC(Oc1ccc(CN2C(=O)OC[C@@H]3CCCC[C@@H]32)cc1)C1CCCCC1 (stereo partly shown)
assayedTarget: mGluR2 receptor (metabotropic glutamate receptor 2) (Homo sapiens)
classAssignment: no (0)
//
molecule: C[C@@H]1CN(Cc2ccc(OCCCOc3ccc(F)cc3)cc2)C(=O)O1
assayedTarget: mGluR2 receptor (metabotropic glutamate receptor 2) (Homo sapiens)
classAssignment: yes (1)

# input Determine whether this molecule has pEC50 no lower than 7: CC(Oc1ccc(CN2CC(c3ccccc3)OC2=O)cc1)c1ccccc1 (stereo not shown)
# output no (0)

# input Field entry: Cc1ccc(Cl)cc1-c1ccc(CN2C[C@@H](C)OC2=O)cn1
# output no (0)

# input Field entry: C[C@@H]1CN(Cc2ccc(COc3ccc(F)cc3F)cc2)C(=O)O1
# output no (0)

# input Field entry: C[C@@H]1CN(Cc2ccc(NCC3CCCCC3)nc2)C(=O)O1
# output no (0)

# input Field entry: CC1CN(Cc2ccc(OCCc3ccccc3)cc2)C(=O)O1 (stereo not shown)
# output no (0)

# input Field entry: CC1CN(Cc2ccc(OCCC3CCCC3)cc2)C(=O)O1 (stereo not shown)
# output yes (1)

# input Field entry: CC(C)COc1ccc(CN2CC(C)(C)COC2=O)cc1
# output no (0)

# input Field entry: CC(C)CN1CCN(Cc2ccc(OC(C)C3CCCCC3)cc2)C(=O)C1 (stereo not shown)
# output no (0)

====

# key: entry, value: EC50
- assayedTarget: mGluR2 receptor (metabotropic glutamate receptor 2) (Homo sapiens, UniProt Q14416)
- runDescription: mGluR2 potentiator screen (FLIPR, EC10-EC20 glutamate challenge);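 note: HEK cells stably expressing human mGluR2 with GL15 G protein, Fluo-4 calcium fluorescence read on FLIPR, compounds added before an EC10-EC20 glutamate challenge to detect potentiation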
- reportedConditions: geometric mean; read-out: mGluR 2 EC50 (geometric mean)

molecule: C[C@@H]1CN(Cc2ccc(-c3cc(Cl)cc(Cl)c3)cc2)C(=O)O1 [Example 187]
experimentalResult: 113 nM

molecule: C[C@@H]1CN(Cc2ccc(-c3ccc(N4CCOCC4)nc3)cc2)C(=O)O1 [Example 154]
experimentalResult: 1240 nM

molecule: C[C@@H]1CN(Cc2ccc(-c3ccc(C(F)(F)F)cc3C(F)(F)F)cc2)C(=O)O1 [Example 275]
experimentalResult: 47.4 nM

molecule: C[C@@H]1CN(Cc2ccc(OCCC3CCCCC3)c(F)c2)C(=O)O1 [Example 241]
experimentalResult: 418 nM

molecule: CC[C@H](Oc1ccc(CN2CC(C)OC2=O)cc1)c1ccccc1 (stereo partly drawn) [Example 148]
experimentalResult: < 13.4 nM

# input Observed EC50 on mGluR2 receptor (metabotropic glutamate receptor 2) (Homo sapiens, UniProt Q14416) for O=C1OC(c2ccccc2)CN1Cc1ccc(OCC2CCCCC2)cc1 (stereo not drawn) [Example 7] , please.
# output 220 nM

# input Field entry: O=C1OCCCN1Cc1ccc(OCc2ccccc2)cc1 [Example 31]
# output 1250 nM

# input Field entry: CC1CN(Cc2ccc(OCc3ccc(F)cc3)cc2)C(=O)O1 (stereo not drawn) [Example 110]
# output 243 nM

# input Field entry: O=C1OC(c2ccccc2)CN1Cc1ccc(OCC2CCC2)cc1 (stereo not drawn) [Example 9]
# output 135 nM
